test system: primary cortical neurons; assay: Neurite outgrowth assay of primary cortical neurons (image-based HCS) against paclitaxel-induced neurotoxicity; type: cell-based, mouse; details: Mus musculus, Primary cortical neuron, read-out: D: Neurite outgrowth (% of control) of test compound (1000 nM) + paclitaxel (1 μM)
Consider the cut-off 70%. If the recorded activity at 1 µM is strictly smaller, the label is yes; if not, the label is no.

smi	discreteLabel
O=C(CCc1ccccc1)NNc1cc(N2CCCCC2)nc(N2CCCCC2)n1	no

[ask] Lab note: confirm whether the reported activity at 1 µM for this compound is below 70%, equality not counting. compound: CN(C)c1cc(NNC(=O)CCc2ccccc2)nc(N(C)C)n1
[reply] yes

Every entry's value here was drawn from paper PMC8958505.
